List of pEC50 values.
- Target entity: recombinant human GPC3 protein (R&D Systems) (human) (UniProt P51654)
- Assay method text: binding ELISA on plate-coated recombinant hGPC3, detection with goat anti-human Fc secondary antibody and TMB
// pEC50: -log10(molar conc.)

Below are worked cases with known answers.
{"Binder": "ARD-103 antibody (IgG) (antibody, V domains shown) VH: QVQLVESGAEVKKPGASVKVSCKASGYTFTDYEMHWVRQAPGQGLEWMGALDPKTGDTAYSQKFKGRVTLTADKSTSTAYMELSSLTSEDTAVYYCTRFYSYTYWGQGTLVTVSS VL: DVVMTQSPLSLPVTPGEPASISCRSSQSLVHSNGNTYLHWYLQKPGQSPQLLIYKVSNRFSGVPDRFSGSGSGTDFTLKISRVEAEDVGVYYCSQNTHVPPTFGQGTKLEIKR", "pEC50": 9.96}
{"Binder": "P3-F7 IgG variant of ARD-103 (antibody, V domains shown) VH: QVQLVESGAEVKKPGASVKVSCKASGYTFTDYEMHWVRQAPGQGLEWMGALDPKTGDTAYSQKFKGRVTLTADKSTSTAYMELSSLTSEDTAVYYCTRFYSYTYWGQGTLVTVSS VL: DVVMTQSPLSLPVTPGEPASISCRSSQSLVHSNGNTYLQWYLQKPGQSPQLLIYKVSNRFSGVPDRFSGSGSGTDFTLKISRVEAEDVGVYYCVQVTHVPPTFGQGTKLEIKR", "pEC50": 10.00}

[in] Report measured pEC50; entry is P6-D11 IgG variant of ARD-103 (antibody, V domains shown) VH: QVQLVQSGAEVKKPGASVKVSCKASGYTFTDYEMHWVRQAPGQGLEWMGALDPKTGDEAYSQKFKGRVTLTADKSTSTAYMELSSLTSEDTAVYYCTRFYSYTYWGQGTLVTVSS VL: DVVMTQSPLSLPVTPGEPASISCRSEQSLVHSNGNTYLHWYLQKPGQSPQLLIYKVSNRFSGVPDRFSGSGSGTDFTLKISRVEAEDVGVYYCVQNGLFPPTFGQGTKLEIKR
[out] 10.03
